Test: solvent given as SMILES
Details: in CC(C)(C)O
Property: absorption maximum (nm)
Give bare numbers, in nm.

O=C1Nc2ccccc2/C1=C/C(=O)c1ccc(O)cc1 | 336
Cc1cc(C2(c3cc(C)c(O)c(Br)c3)OS(=O)(=O)c3ccccc32)cc(Br)c1O | 411
COc1ccc(C(=O)/C=C2\C(=O)Nc3ccccc32)c(OC)c1 | 338
COCCOc1ccc(OCCOC)c(C=O)c1 | 350

For the compound shown here, COC(=O)C(Cc1ccc2oc(-c3ccc(-n4c5ccccc5c5ccccc54)cc3)nc2c1)NC(=O)OC(C)(C)C (stereo not given) , give the reported absorption maximum.
341.8

###

Assign absorption maximum to each entry below.
Assay: solvent given as SMILES
Conditions: in ClCCl
One number for each entry, in nm.

Reference set (4 entries):
CN(C)c1ccc(C2=CC3=C(c4ccc(C#N)cc4)[C@H]4c5ccccc5[C@]3(S2)c2ccccc24)cc1 | 436
CCN(CC)c1ccc2c(c1)oc(=O)c1cnc3c(c(C)nn3-c3ccccc3)c12 | 404
Cc1ccccc1C(=O)NN1C2=C(CC3=C1CC(C)(C)CC3=O)C(=O)CC(C)(C)C2 | 368
CC(C)(C)c1cc(-c2c3cc(c(-c4cc(C(C)(C)C)cc(C(C)(C)C)c4)c4ccc([nH]4)c(-c4ccc([N+](=O)[O-])cc4)c4nc(c(-c5ccc([N+](=O)[O-])cc5)c5ccc2[nH]5)C=C4)N=C3)cc(C(C)(C)C)c1 | 726

Proceeding to the next compound to report its absorption maximum.
For the compound shown here, C(=C\c1cc(-c2ccccc2)c(/C=C/c2ccc(N(c3ccccc3)c3ccccc3)cc2)cc1-c1ccccc1)/c1ccc(N(c2ccccc2)c2ccccc2)cc1 , give the reported absorption maximum.
415

###

Assay: solvent given as SMILES
Settings: in C1CCOC1
Assign absorption maximum to each entry below.
Numbers only, in nm.

CN(C)c1cc(C#N)c(N(C)C)c(C#N)c1 | 390.47
CC(C)(C)c1ccc2c(c1)c1cc(C(C)(C)C)ccc1n2-c1cccc(-c2nc(-c3cccc(-n4c5ccc(C(C)(C)C)cc5c5cc(C(C)(C)C)ccc54)c3)nc(-c3cccc(P(=O)(c4ccccc4)c4ccccc4)c3)n2)c1 | 344.36

Dear reader, for each entry below, please note its absorption maximum.
1. CN(C)c1ccc(C(=O)Nc2ccc([N+](=O)[O-])cc2)cc1
2. CCCCCCCCCc1c2ccccc2cc2c1oc1c3c(c4ccccc4c12)-c1c(c2oc4cc5ccccc5cc4c2c2ccccc12)OCO3

[353, 397]

Dear reader, for each entry below, please note its absorption maximum.
1. CCn1c2ccccc2c2cc(C#Cc3cc(C#Cc4ccc5c(c4)c4ccccc4n5CC)ncn3)ccc21
2. CCOC(=O)c1ccc(C2=C(c3ccccc3)c3oc4ccccc4[n+]3[B-](F)(F)O2)cc1
3. O=c1c2ccccc2sc2ccc(-n3c4ccccc4c4ccccc43)cc12
4. COc1ccc(/C=C/C2=CC(/C=C/c3ccc(OC)cc3)=[O+][B-](OC(C)=O)(OC(C)=O)O2)cc1
5. CCC1=C(C)C2=C(c3cc(C(=O)Cl)cc(C4=C5C(C)=C(CC)C(C)=[N+]5[B-](F)(F)n5c(C)c(CC)c(C)c54)c3)c3c(C)c(CC)c(C)n3[B-](F)(F)[N+]2=C1C

[382, 350, 388, 456, 530]

###

Assay: solvent given as SMILES
Conditions: in CC#N
Property: absorption maximum (nm)
Answers are plain numbers, in nm.

Reference set (2 entries):
F[B-]1(F)OC(c2ccccc2)=Nc2sc(-c3ccccc3)n[n+]21 | 330
CN(C)c1cc(-c2ccc(C#Cc3ccncc3)cc2)cc2ccccc12 | 306.26

Dear reader, for each entry below, please note its absorption maximum.
1. CCCCN1C(=O)C(=C/C=C/C=C/C=C2N(CCCC)c3ccccc3N2CCCC)C(=O)N(CCCC)C1=S
2. COc1ccc(-c2[nH]c(=O)n3c2-c2ccccc2C3=O)c(OC)c1
3. COc1cccc2cc(-c3cc4cccc(OC)c4oc3=O)oc12
4. CN(C)c1ccc(-c2nc3cnccc3[nH]2)cc1
5. CC1=CC(C)=[N+]2C1=C(c1ccc3cccnc3n1)c1c(C)cc(C)n1[B-]2(F)F
6. CC[n+]1ccc2ccccc2c1/C=C/c1c([O-])ccc2ccc(=O)oc12

1. 540
2. 401
3. 352
4. 335
5. 501
6. 591.03

For the compound shown here, CN(C)CCN(Cc1c2ccccc2c(CN(CCN(C)C)c2ccc([N+](=O)[O-])cc2[N+](=O)[O-])c2ccccc12)c1ccc([N+](=O)[O-])cc1[N+](=O)[O-] , give the reported absorption maximum.
347

###

Test: solvent given as SMILES
Details: in CCCCCC
Property: absorption maximum
Please answer using a numeric value trailed by its unit.

CCCCN1C(=O)C(=C/C=C/C=C/C=C2N(CCCC)c3ccccc3N2CCCC)C(=O)N(CCCC)C1=S | 678 nm

Dear reader, for each entry below, please note its absorption maximum.
1. Oc1ccc(/N=C/c2ccccc2Oc2ccccc2)cc1
2. CC(C)[Si](C#Cc1ccc(C#C[Si](C(C)C)(C(C)C)C(C)C)c2nc3c(nc12)Cc1ccccc1-3)(C(C)C)C(C)C
3. Cc1csc2[n+]1[B-](F)(F)n1c(c3cccc4cccc1c43)=N2
4. CC1(C)c2ccccc2N(c2ccc(-c3nnc(-c4ccccc4O)o3)cc2)c2ccccc21

["346 nm", "369 nm", "477 nm", "362 nm"]

###

Experiment: solvent given as SMILES
Conditions: in CS(C)=O
Property: absorption maximum (nm)
Numbers only, in nm.

Reference set (3 entries):
Cn1c(=O)c(/N=N/c2ccc(Nc3ccccc3)c(S(=O)(=O)O)c2)c(O)c2ccccc21 | 396
CCCCOc1ccc(-c2cc3c(o2)c(-c2ccc(OCCCC)cc2)c2n3[B-](F)(F)[N+]3=Cc4c(-c5ccc(OCCCC)cc5)c5oc(-c6ccc(OCCCC)cc6)cc5n4[B-](F)(F)[N+]3=C2)cc1 | 625
COc1ccc(C#Cc2ccc(C#N)cc2)cc1OC | 334

Dear reader, for each entry below, please note its absorption maximum.
1. CN(C)c1ccc2cc(C(/C=C/c3cn(C)c4ccccc34)=C(C#N)C#N)c(=O)oc2c1
2. CC1=NN(c2ccccc2)C(=O)/C1=C\c1cn(-c2ccccc2)nc1-c1ccc([N+](=O)[O-])cc1
3. CCN(CC)c1ccc2c(c1)oc(=O)c1c(=O)oc3cc(C#Cc4ccc(N(C)C)cc4)ccc3c12
4. CC(C)(C)OC(=O)COc1ccc2c(c1)oc(=O)c1c(=O)oc3ccccc3c12
5. CC1=NN(c2ccccc2)C(=O)/C1=C/c1cn(-c2ccccc2)nc1-c1ccccc1

1. 477
2. 364
3. 468
4. 366
5. 370

###

Assign absorption maximum to each entry below.
Assay: solvent given as SMILES
Details: in Cc1ccccc1
Give bare numbers, in nm.

Reference set (2 entries):
CCCCCCN(CCCCCC)c1ccc(C#Cc2ccc(-c3ccc(C#Cc4ccc(N(CCCCCC)CCCCCC)cc4)cc3)cc2)cc1 | 374
Fc1cc(-c2nc(-c3ccccc3)nc(-c3ccccc3)n2)ccc1-n1c2ccccc2c2c3c(ccc21)C1(c2ccccc2-c2ccccc21)c1ccccc1-3 | 370

Dear reader, for each entry below, please note its absorption maximum.
1. COc1ccc(N(c2ccc(OC)cc2)c2ccc3ccc4c(B(c5c(C)cc(C)cc5C)c5c(C)cc(C)cc5C)ccc5ccc2c3c54)cc1
2. O=C1c2cccc3cc4ccccc4c(c23)C(=O)N1Cc1ccccn1
3. F[B-]1(F)n2cccc2C(c2c3ccccc3cc3ccccc23)=C2C=CC=[N+]21
4. CCCCCCCCCCC(CCCCCCCCCC)Cn1c2cc(-c3ccc(C(C)(C)C)cc3)c3cccc4c5ccc6c7cc(-c8cc(C(C)(C)C)cc(C(C)(C)C)c8)n8c7c(c7cc1c(c5c76)c2c34)=C1C=CC(c2cc(C(C)(C)C)cc(C(C)(C)C)c2)=[N+]1[B-]8(F)F
5. CC1(C)c2ccccc2N(c2cc[n+]3c(c2)-c2ccccc2O[B-]3(F)F)c2ccccc21

1: 469; 2: 435; 3: 508; 4: 780; 5: 358

###

Experiment: solvent given as SMILES
Conditions: in CS(C)=O
Property: absorption maximum (nm)
One number for each entry, in nm.

Reference set (4 entries):
CCC12C(=C3C(=C4c5ccc(-c6ccc(C)s6)cc5S(=O)(=O)C41CC)C(F)(F)C(F)(F)C3(F)F)c1ccc(-c3ccc(C)s3)cc1S2(=O)=O (centres undefined) | 525.37
COc1ccc(C#Cc2ccc(C#Cc3ccc(P(=O)(c4ccc(C#Cc5ccc(C#Cc6ccc(OC)cc6)cc5)cc4)c4ccc(C#Cc5ccc(C#Cc6ccc(OC)cc6)cc5)cc4)cc3)cc2)cc1 | 338
CCc1ccc(/C=C/c2ccc(-c3nnc(-c4ccc(-c5cc6ccccc6s5)cc4)o3)cc2)cc1 | 350
O=c1c(Nc2ccccc2)c([O-])c1=[NH+]c1ccccc1 | 378

Dear reader, for each entry below, please note its absorption maximum.
1. COc1cc2c3cc(OC)c(OC)cc3c3cc4c(C)cc(=O)oc4cc3c2cc1OC
2. c1ccc(-c2cc(-c3ccc(-c4nc(-c5ccccn5)c(-c5ccccn5)[nH]4)cc3)cc(-c3ccccn3)n2)nc1
3. CN(C)c1ccc(/C=C/c2nc3ccccc3s2)cc1
4. CCCCCCCCCCCCCCCC[n+]1ccc(/C=C(\C)c2ccccc2)cc1
5. CCC[n+]1ccc(/C=C/c2ccc(N(C)C)cc2)cc1
6. CCNc1cc2oc(=O)c3c(=O)oc4ccccc4c3c2cc1C

1. 370
2. 338
3. 405
4. 384.6
5. 476
6. 454

Dear reader, for each entry below, please note its absorption maximum.
1. CCN(CC)c1ccc2nc3c4ccccc4c(=O)cc-3oc2c1
2. CCOC(=O)C1=C(C)NC2=C(C(=O)c3ccccc32)C1c1ccc(N(C)C)cc1 (centres undefined)
3. O=[N+]([O-])c1ccc(-c2nc3c(c4c2-c2ccccc2CC4)-c2ccccc2CC3)cc1
4. O=C1c2ccccc2-c2ccc(N3CCN(c4ccccc4)CC3)c3cccc1c23
5. Cn1c2ccccc2c(=O)c2ccccc21
6. CN(C)c1ccc(/C=C/c2cc[n+](CCC[n+]3ccc(/C=C/c4ccc(N(C)C)cc4)cc3)cc2)cc1

[552, 400, 352, 452, 403, 485]

Dear reader, for each entry below, please note its absorption maximum.
1. Cn1c(=O)c(/N=N/c2ccc(S(=O)(=O)O)c3ccccc23)c(O)c2ccccc21
2. Nc1ccc(-c2ccc(N)cc2)cc1
3. CCOC(=O)c1ccccc1-c1c2ccc(=O)cc-2oc2cc(OC(=O)[C@H](CSCc3ccc(C)cc3)NC(=O)OC(C)(C)C)ccc12

[470, 292, 457]

These entries and their values trace back to the Deep4Chem optical property database.
